study-target: Beta-2 adrenergic receptor (Homo sapiens)
protocol-description: agonist-induced loss of surface beta2AR – cell-based, FAP fluorogen, flow cytometry, validation set, pilot screen (AID 504459);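 further: agonist-driven loss of surface beta2AR via internalization measured by FAP dye flow cytometry; reference of the scale not given here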
conditions-used: Am2.2-beta2AR cells, at 10 µM, stronger effect = higher value
attribute-measured: response (%)
Return type: number; implicit unit %.

{"compound": "O=C(COc1cc(O)c2c(=O)c3ccccc3oc2c1)OCc1ccccc1", "readout-value": -4.65}
{"compound": "NC[C@H]1O[C@H](O[C@H]2[C@H](O)[C@@H](O[C@H]3O[C@H](CO)[C@@H](O)[C@H](N)[C@H]3O)[C@H](N)C[C@@H]2N)[C@H](N)C[C@@H]1O", "readout-value": -5.14}
{"compound": "O=C1C(Cc2c[nH]c3ccccc23)NC(=S)N1Cc1ccccc1 (stereo not given)", "readout-value": 3.86}
{"compound": "O=C(Nc1ccccc1C(=O)N1CCCCCC1)c1ccccc1Cl", "readout-value": -9.01}

[ask] Given O=C(O)CCCN1C(=O)NC2NC(=O)NC21 (stereo not given) , state its recorded response.
[reply] 0.46
